- tgt: MAL^TIR (Homo sapiens, UniProt P58753)
- Construct: MAL (residues 79–221); 6xHis; made in house; host or cells: E. coli BL21 (DE3)
- Sequence (P58753 79-221): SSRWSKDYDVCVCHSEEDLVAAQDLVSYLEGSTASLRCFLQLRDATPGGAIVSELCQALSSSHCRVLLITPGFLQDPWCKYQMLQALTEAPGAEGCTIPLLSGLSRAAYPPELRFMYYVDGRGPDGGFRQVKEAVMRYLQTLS
- assay_summary: T‐Surf phage library (P8 and P3) selection against MAL^TIR, four rounds, NGS read counts
- Assay type: binding
- condition_label: P3 library, selection against MAL TIR; rank by count before grouping
assay_readout: P3_MAL Rank (before)

residue_sequence: ESILNQLRRSSQSMR
P3_MAL Rank (before): 2061
--
residue_sequence: YAFTGHLHRYLLQKM
P3_MAL Rank (before): 737
--
residue_sequence: YAFTSHLSRYLVQRGV
P3_MAL Rank (before): 1476
--
residue_sequence: YAFTGHLNRSLVQRGV
P3_MAL Rank (before): 1440
--
residue_sequence: YAFTGHLHRYLVQPGG
P3_MAL Rank (before): 1409

[I] NQWRNSLTAAANLSCW
[II] LQNQWKLALTQAAN
[III] YAFTGHPHRSLVQRGV
Query: Place the items in sequence of falling P3_MAL Rank (before). Give the order by naming the labels one after another as requested.
Response: I, III, II
(I: 3341, III: 1446, II: 827)
